SYSTEM_TESTED: human GPR119 (Homo sapiens)
Sequence (Q8TDV5 1-308 limits assumed): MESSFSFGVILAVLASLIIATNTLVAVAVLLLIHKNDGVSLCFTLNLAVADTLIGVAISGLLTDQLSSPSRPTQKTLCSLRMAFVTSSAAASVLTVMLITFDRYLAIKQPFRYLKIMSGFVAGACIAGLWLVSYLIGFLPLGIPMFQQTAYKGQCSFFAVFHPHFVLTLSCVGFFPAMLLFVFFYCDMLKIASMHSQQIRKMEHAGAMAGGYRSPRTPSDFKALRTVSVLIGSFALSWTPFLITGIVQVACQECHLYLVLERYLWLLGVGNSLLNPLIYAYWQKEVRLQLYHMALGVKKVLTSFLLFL
ASSAY_PROTOCOL: Measurement of GPR119 signaling by cAMP (LANCE cAMP kit or HTRF) in HEK293 cells transfected with human GPR119
SETTINGS: agonist cAMP response in HEK293 cells stably transfected with human GPR119; patent does not say which of the two cAMP formats (LANCE or HTRF)
MEASUREMENT_TYPE: EC50 (nM)

Take a look at these entries with their results.
- SMILES: "COCc1cnc(N2CCC([C@H]3C[C@H]3CCOc3ccc(CC(=O)N4CC(C)(O)C4)c(F)c3)CC2)nc1"
  EC50 / nM: 3.6
- SMILES: "O=C(Cc1ccc(OCC[C@@H]2C[C@@H]2C2CCN(c3ncc(Cl)cn3)CC2)cc1F)N1CCc2[nH]ncc2C1"
  EC50 / nM: 2

1 = COc1cnc(N2CCC([C@H]3C[C@H]3CCOc3ccc(CC(=O)N4CC(F)C4)c(F)c3)CC2)nc1
2 = COCc1cnc(N2CCC([C@H]3C[C@H]3CCOc3ccc(CC(=O)N4CCC4)c(Cl)c3)CC2)nc1
3 = CCOc1cnc(N2CCC([C@H]3C[C@H]3CCOc3cc(F)c(CC(=O)N4CC(F)(F)C4)c(F)c3)CC2)nc1
4 = COCc1cnc(N2CCC([C@H]3C[C@H]3CCOc3ccc(CC(=O)N4CCOCC4)cc3)CC2)nc1
Problem: Number of compounds to sort: 4. Sort criterion: EC50, ascending. Rank them, then answer with their labels in that order.
Result: 3, 1, 2, 4

----------
SYSTEM_TESTED: human GPR119 (Homo sapiens, UniProt Q8TDV5)
ASSAY_PROTOCOL: Measurement of GPR119 signaling by cAMP (LANCE cAMP kit or HTRF) in HEK293 cells transfected with human GPR119
SETTINGS: agonist cAMP response in HEK293 cells stably transfected with human GPR119; patent does not say which of the two cAMP formats (LANCE or HTRF)
pEC50: −log10 of the molar value.
MEASUREMENT_TYPE: pEC50

P = CC(C)(O)c1cnc(N2CCC([C@H]3C[C@H]3CCOc3cc(F)c(CC(=O)N4CCC4)c(F)c3)CC2)nc1 [Example 206]
Q = O=C(Cc1ccc(OCC[C@@H]2C[C@@H]2C2CCN(c3ncc(Cl)cn3)CC2)cc1F)N1CCc2nc(C3CC3)oc2C1 [Example 150]
Problem: I'd appreciate it if you could identify which of P and Q has the greater pEC50. Answer format: the label of the selected item.
Result: P

P = COC[C@@H]1CCCN1C(=O)Cc1ccc(OCC[C@@H]2C[C@@H]2C2CCN(c3ncc(Cl)cn3)CC2)cc1F [Example 78]
Q = COc1cnc(N2CCC([C@H]3C[C@H]3CCOc3cc(F)c(CC(=O)N4CC(C)(O)C4)c(F)c3)CC2)nc1 [Example 212]
R = COc1cnc(N2CCC([C@H]3C[C@H]3CCOc3cc(F)c(CC(=O)N4CC(OC)C4)c(F)c3)CC2)nc1 [Example 211]
Problem: Sort by pEC50, descending. Rank them, then answer with their labels in that order.
Result: R, Q, P
(R: 9.96, Q: 9.06, P: 8.42)
